System: HAP1 MTAP-deleted cell line
assayProtocol: Viability assay, HAP1 MTAP-deleted cell line
Type: cell-based
settings: Homo sapiens; viability assay, HAP1 MTAP-deleted cell line; read-out: Hap1 MTAP deleted viability IC50
pIC50: −log10 of the molar value.
quantityKind: pIC50

Below, each entry is followed by its recorded pIC50 result.
molecule	pIC50
CC(C)CN(C(=O)C(=O)Nc1cnc(N)c2cn[nH]c12)[C@@H](C)c1ccccc1 [Compound 165]	> 7.00
Nc1ncc(NC(=O)C(=O)N(Cc2ccccc2)CC2CCCCC2)c2[nH]ncc12 [Compound 175]	> 7.00

IN: Quick one: pIC50 for CCN(Cc1ccccc1C)C(=O)C(=O)Nc1cnc(N)c2cn[nH]c12 [Compound 151] ?
OUT: > 7.00

IN: Quick one: pIC50 for Nc1ncc(NC(=O)C(=O)N(Cc2ccc(C(F)(F)F)cc2)C2CC2)c2[nH]ncc12 [Compound 107] ?
OUT: > 7.00

IN: Quick one: pIC50 for CC(C)c1ccccc1CN(C)C(=O)C(=O)Nc1cnc(N)c2cn[nH]c12 [Compound 183] ?
OUT: 6.00 to 7.00

IN: Quick one: pIC50 for CCN(C(=O)C(=O)Nc1cnc(N)c2cn[nH]c12)[C@H](C)c1ccc(C(F)(F)C(F)(F)F)cc1C [Compound 59] ?
OUT: > 7.00

IN: Quick one: pIC50 for CC[C@@H](C)CN(Cc1ccc(C(F)(F)F)cn1)C(=O)C(=O)Nc1cnc(N)c2cn[nH]c12 [Compound 75] ?
OUT: > 7.00

IN: Quick one: pIC50 for CCC(C)CN(Cc1ccccn1)C(=O)C(=O)Nc1cnc(N)c2cn[nH]c12 (stereo not shown) [Compound 152] ?
OUT: > 7.00

IN: Quick one: pIC50 for CC(CN(Cc1ccc(C(F)(F)F)cn1)C(=O)C(=O)Nc1cnc(N)c(C2CC2)c1)C1CC1 (stereo not shown) [Compound 13] ?
OUT: 6.00 to 7.00

IN: Quick one: pIC50 for Nc1ncc(NC(=O)C(=O)N(Cc2ccccn2)Cc2ccc(F)cc2Cl)c2[nH]ncc12 [Compound 77] ?
OUT: > 7.00

IN: Quick one: pIC50 for CCC(c1ccc(C(F)(F)F)cn1)N(C)C(=O)C(=O)Nc1cnc(N)c2cn[nH]c12 (stereo not shown) [Compound 138] ?
OUT: 6.00 to 7.00

IN: Quick one: pIC50 for Cc1cccc(CN(Cc2ccccc2)C(=O)C(=O)Nc2cnc(N)c3cn[nH]c23)n1 [Compound 191] ?
OUT: > 7.00

IN: Quick one: pIC50 for CCN(C(=O)C(=O)Nc1cnc(N)c2cn[nH]c12)[C@@H](C)c1ccc(C(F)(F)F)cc1C [Compound 57] ?
OUT: > 7.00

IN: Quick one: pIC50 for Nc1ncc(NC(=O)C(=O)N(Cc2ccccn2)Cc2cccc(Cl)c2Cl)c2[nH]ncc12 [Compound 91] ?
OUT: > 7.00

IN: Quick one: pIC50 for Cc1cc(NC(=O)C(=O)N(Cc2ccc(C(F)(F)F)cn2)C(C)c2ncccn2)cnc1N (racemic) [Compound 16] ?
OUT: 6.00 to 7.00

IN: Quick one: pIC50 for C[C@@H](c1ccc(C(F)(F)F)cn1)N(C)C(=O)C(=O)Nc1cnc(N)c2cn[nH]c12 [Compound 127] ?
OUT: 6.00 to 7.00

IN: Quick one: pIC50 for Cc1cc(NC(=O)C(=O)N(Cc2ccc(C(F)(F)F)cn2)[C@@H]2CC[C@@H](C)c3ccccc32)cnc1N (stereo in doubt) [Compound 51] ?
OUT: > 7.00

IN: Quick one: pIC50 for Cc1ccccc1CN(CC(C)C)C(=O)C(=O)Nc1cnc(N)c2cn[nH]c12 [Compound 185] ?
OUT: > 7.00

IN: Quick one: pIC50 for O=C(Nc1cncc2cn[nH]c12)C(=O)N(Cc1ccc(C(F)(F)F)cn1)[C@@H]1CCc2ccccc21 [Compound 26] ?
OUT: 6.00 to 7.00
